The values you see were collected from PubChem BioAssay (NCI).

Tested on: LOX IMVI melanoma
procedure details: NCI tumour cell line growth inhibition, 48 h
Let's look at some molecules and their measured TGI.
quantity name: TGI (µM)

- CCNCCNc1cc(C2CCCCC2)c(C#N)c2nc3ccccc3n12: 2.08
- CCCCOCCOC1=CC(=O)c2c(O)ccc(O)c2C1=O: 3.15
- O=C(COc1cccc(/C=C2\COc3ccc(Cl)cc3C2=O)c1)c1ccc(Cl)cc1: 13.2
- Nc1n[nH]c2ccc([C@@H]3Nc4ccc5[nH]ncc5c4[C@H]4C5C=CC(C5)[C@@H]34)cc12 (stereo partly specified): 11.8
- O=C1C(=C(I)I)c2ccccc2-c2ccccc21: 5.26

----------
Tested on: EKVX NSCLC
procedure details: NCI tumour cell line growth inhibition, 48 h
Let's look at some compounds and their measured GI50.
quantity name: GI50

- CC(C)c1ccc(Nc2nccc(-c3cnn4ncccc34)n2)cc1: 0.64 µM
- COc1cc(C2C3=C(COC3=O)Nc3cc4c(cc32)CCC4)cc2c1OCO2 (stereo unspecified): 0.486 µM
- CC(C)N1C(NNC(=O)c2cnccn2)=NS(=O)(=O)c2ccccc21: > 100 µM
- C/C=C/C=C/CCCCCCCCCCCCCC1(OC)C=CC(CC(=O)OC)OO1 (stereo unspecified): 5.69 µM
- Cc1cn2c(/C=N/Nc3ccccn3)c(-c3ccc(Cl)c([N+](=O)[O-])c3)nc2s1: 21.6 µM
- O=C(N/N=C/c1cc([N+](=O)[O-])ccc1O)c1cccc2ccccc12: 3.8 µM
- CCOc1ccccc1/C=N\N=C(\N)N/N=C/c1ccccc1OCC: 4.59 µM
- CCOC(=O)c1nc(Nc2ccc(Cl)cc2)c2ccccc2n1: 13 µM
- CCCCN(CCCC)c1ccc(C(=NC(C)CCCN(CC)CC)c2ccc(N(C)C)cc2)cc1 (stereo unspecified): 1.05 µM
- COc1ccc(-c2nn(-c3cccc(Cl)c3)cc2-c2cc(-c3ccccc3)nc(N)n2)cc1: 2.32 µM
- O=C(CN1CCN(c2ccccc2)CC1)N1CCN(c2nnc(-c3ccc(Cl)cc3)c(-c3ccc(Cl)cc3)n2)CC1: 21.6 µM
- O=C(CN(/C=C/C(=O)C(F)(F)F)c1ccccc1)c1ccc(Cl)c(Cl)c1: 13.5 µM
- CCCCCCCOc1c(OC)cc(C2CC(=O)Nc3c2c(C)nn3-c2nc3ccccc3[nH]2)cc1OC (stereo unspecified): 2.54 µM
- O=C(OCCBr)c1ccc(Cl)c([N+](=O)[O-])c1: 18.4 µM
- O=C(COc1cccc(/C=C2\COc3ccc(Cl)cc3C2=O)c1)c1ccc(Cl)cc1: 12.5 µM
- O=C(c1cccnc1)c1cc(-c2ccccn2)c(=O)n2ccccc12: > 100 µM

----------
System: KM12 colon
procedure details: NCI tumour cell line growth inhibition, 48 h; in the data active = GI50 below about 0.43 µM; inactive = the rest
Outcomes: True (active), False (inactive)

• CCOc1ccccc1/C=N\N=C(\N)N/N=C/c1ccccc1OCC = False
• CCCCNC(=O)NS(=O)(=O)c1ccc(N2N=C(c3cc(C)ccc3C)CC2c2cc(OC)c(OC)c(OC)c2)cc1 (configuration not stated) = False
• CCCOc1nc(SCCC)nc2c1cnn2-c1ccccc1 = False
• Cc1[nH]c2ccccc2c1CCNCc1ccc(/C=C/C(=O)NO)cc1 = True
• OCC1OC(n2cnc3c(=S)nc[nH]c32)C(O)C1O (configuration not stated) = False
• Cn1cc(-c2ccc(-c3cn(C)c4ccc(Cl)cc34)s2)c2cc(Cl)ccc21 = False
• CC(C)N1C(NNC(=O)c2cnccn2)=NS(=O)(=O)c2ccccc21 = False
• COC(=O)C1=C(OC(=O)c2ccc(Cl)cc2)C(C(=O)OC)[C@@]2(O)[C@@H](C(=O)OC)C(c3ccccc3Cl)C[C@@H]1[C@@H]2C(=O)OC (some centres not stated) = False
• COc1ccc(-c2nn(-c3cccc(Cl)c3)cc2-c2cc(-c3ccccc3)nc(N)n2)cc1 = False
• CCOC(=O)c1nc(Nc2ccc(Cl)cc2)c2ccccc2n1 = False
• COc1cc(C2C3=C(COC3=O)Nc3cc4c(cc32)CCC4)cc2c1OCO2 (configuration not stated) = True
• COc1cc2c3c(n(C)c(=O)c2cc1OC)-c1cc2c(cc1/C3=C\C(N)CN)OCO2 (configuration not stated) = False

----------
System: HT29 colon
procedure details: NCI tumour cell line growth inhibition, 48 h
quantity name: TGI

• Cc1ccc2c(C)c3ccc4ccccc4c3c[n+]2c1 = > 100 µM
• C[n+]1cccc2ccc(OC(=O)c3ccccc3)cc21 = > 100 µM
• Nc1ccc(-c2ccc(N)cc2I)c(I)c1 = 42.8 µM
• NC(CCCCNC(=O)CNC(=O)OCc1ccccc1)C(=O)NC(CCCCNC(=O)CNC(=O)OCc1ccccc1)C(=O)NC(CCCCNC(=O)CNC(=O)OCc1ccccc1)C(=O)NC(CCCCNC(=O)CNC(=O)OCc1ccccc1)C(=O)NC(CCCCNC(=O)CNC(=O)OCc1ccccc1)C(=O)NC(CCCCNC(=O)CNC(=O)OCc1ccccc1)C(=O)O (centres undefined) = > 75 µM
• Cc1ccc(Sc2ccc(C)cc2[N+](=O)[O-])c([N+](=O)[O-])c1 = > 10 µM
• COc1cc(/C=C2\C(=O)N(Cc3ccccc3)C(c3ccccc3)S2(=O)=O)cc(OC)c1OC (centres undefined) = > 100 µM
• NC(=S)N/N=C1\c2ccccc2CCC1CCC1(O)CCc2ccccc2C1=O (centres undefined) = 45.9 µM
• COC(=O)C1CCC(=O)N1C(c1ccccc1)c1cc(OC)c(OC)c(OC)c1 (centres undefined) = > 100 µM
• Cc1ccc2c(c1)C(=O)c1c-2n(CCCBr)c(=O)c2cc([N+](=O)[O-])ccc12 = > 100 µM

----------
Test system: SNB-78 CNS
procedure details: NCI tumour cell line growth inhibition, 48 h
quantity name: TGI

• C=C1CCc2occ(C)c2C2C1C1=C(CC(C)C1=O)C1OC12C (stereo not drawn) = > 100 µM
• CS/C(C)=N/OC(=O)NCCCCNc1ccc(N=[N+]=[N-])cc1 = > 100 µM
• CCCC(Sc1ccccc1)P(=O)(c1ccccc1)c1ccccc1 (stereo not drawn) = > 100 µM

----------
System: XF 498 CNS
procedure details: NCI tumour cell line growth inhibition, 48 h
quantity name: TGI

• COc1cc(C)c(O)c(C(=O)O)c1 = > 100 µM
• COc1cccc2nc3cc(C)c(C)cc3nc12 = > 100 µM
• COC(=O)C1=C(O)c2cc3c(cc2[C@H](c2cc(OC)c(OC)c(OC)c2)C1C(=O)OC)OCO3 (some centres not stated) = 70 µM
• C/C=C/C=C/CCCCCCCCCCCCCC1(OC)C=CC(CC(=O)OC)OO1 (configuration not stated) = 15.8 µM
• O=C1CCC2(c3ccccc3)Nc3ncccc3N12 (configuration not stated) = > 100 µM
• CCSc1nc(=[N+]2CCCC2)ss1 = > 77.9 µM
• CC(C)C12C=CC(C)(CC1)n1c(=O)c3cc4ccccc4cc3c(=O)n12 (configuration not stated) = > 100 µM
• OCC1OC(n2cnc3c(=S)nc[nH]c32)C(O)C1O (configuration not stated) = > 1400 µM
• COc1ccc(-c2cc(=O)c3cc4c(cc3[nH]2)OCO4)cc1 = > 100 µM
• CN1CCN(c2cc(-c3cc4ccccc4o3)oc(=O)c2C#N)CC1 = > 100 µM
• CC1OC1C(=O)C1(O)C(C)C(O)C23OC2(C(O)c2c(O)cccc2C3=O)C1O (configuration not stated) = 0.961 µM
• C=C1CCc2occ(C)c2C2C1C1=C(CC(C)C1=O)C1OC12C (configuration not stated) = > 100 µM

----------
Let's look at some molecules and their measured TGI.
Test system: UACC-62 melanoma
procedure details: NCI tumour cell line growth inhibition, 48 h
quantity name: TGI (µM)

* Nc1nc(N)c2[nH]cnc2n1 (tested in a mixture with another compound) | 24.9
* C=C1C(=O)O[C@H]2[C@H]3O[C@@H](C[C@@H]12)[C@@]1(C)CC[C@H](O1)C(C)=CCC[C@H]3C | 4.05
* Nc1n[nH]c2cccc(C#Cc3cccc(C(=O)Nc4cc(CN5CCOCC5)cc(C(F)(F)F)c4)c3)c12 | 8.34
* C[C@]12CCc3sc(Nc4ccc(O)cc4)nc3C1=CC[C@@H]1[C@@H]2CC[C@]2(C)C(=O)CC[C@@H]12 | 4.02
* O=C(N/N=C/c1cc([N+](=O)[O-])ccc1O)c1cccc2ccccc12 | 26.4

----------
Tested on: OVCAR-8 ovarian
procedure details: NCI tumour cell line growth inhibition, 48 h
*1 amine or outer side, *2 acyl side, *3 side chain or, on linkers, in order; H or OH if unused. Where a SMILES comes first, the peptide text is derived from it. [ ]: non-standard residue; d: D form. X33 = C=CCC(O[*:1])C(=O)[*:2]; NMeV = CN[CH](C(=O)O)C(C)C; NMeA = CN[CH](C)C(=O)O; βAla = NCCC(=O)O
quantity name: TGI

• O=c1[nH]c(-c2ccccc2)nc2c1sc1nc3ccccc3n12 = > 100 µM
• C=CCCCC1CCCNC1=S (stereo unspecified) = > 100 µM
• O=C(Nc1nc(=S)c2c(ncn2CCO)[nH]1)c1ccccc1 = > 100 µM
• O=C(Cc1ccccc1)NNc1nc(NNC(=O)c2ccncc2)nc(Nc2cccc(Cl)c2)n1 = > 10 µM
• Cn1ccnc1C(=O)/C=C/c1ccc(CC(=O)Nc2ccc(C(F)(F)F)cc2)cc1 = > 16.7 µM
• O=C(O)CC1OCC=C2CN3CCC45C6=CC(=O)C(=O)C([N+](=O)[O-])=C6NC4C1C2CC35 (stereo unspecified) = > 100 µM
• COc1cc2c3c(n(C)c(=O)c2cc1OC)-c1cc2c(cc1/C3=C\C(N)CN)OCO2 (stereo unspecified) = 18.8 µM
• CS(=O)(=O)Nc1ccc(N=Cc2c(O)[nH]c3ccccc23)cc1 = > 25 µM
• CC(=O)Nc1ccc(/C=C/C(=O)c2sc(-c3nc(C)c(C(=O)/C=C/c4ccc(NC(C)=O)cc4)s3)nc2C)cc1 = > 100 µM
• CC1=N[C@](C)(C2CC3C=CC2C3=O)COC1=O (stereo partly specified) = > 100 µM
• CCC1CCc2c(OC)ccc(OCC(=O)O)c2C1=O (stereo unspecified) = > 100 µM
• C/C(CC1SCCCS1)=C(/C)CC1SCCCS1 = > 100 µM
• O=C(COc1cccc(/C=C2\COc3ccc(Cl)cc3C2=O)c1)c1ccc(Cl)cc1 = 37.5 µM
• COC(=O)C1=C(OC(=O)c2ccc(Cl)cc2)C(C(=O)OC)[C@@]2(O)[C@@H](C(=O)OC)C(c3ccccc3Cl)C[C@@H]1[C@@H]2C(=O)OC (stereo partly specified) = 12.8 µM
• COC(=O)C(F)C(Br)C(=O)OC (stereo unspecified) = 12.6 µM
• Cn1cnc(N2CCCC2)c(C#N)c1=O = > 100 µM
• O=C(CCc1cc(-c2ccccc2)nc(=S)[nH]1)Nc1ccccc1[N+](=O)[O-] = > 100 µM
• COc1cc2c(cc1OC)C(C)N(C)c1c-2c(OC(C)=O)cc2cc(OC)c(OC)cc12 (stereo unspecified) = 33.2 µM
• C=CCC1OC(=O)CCNC(=O)C(C)N(C)C(=O)C(C(C)C)N(C)C(=O)C(C(C)CC)NC(=O)C2CCCN2C1=O (stereo unspecified) (cyclo([X33]PI[NMeV][NMeA][βAla]); configuration not given here) = > 100 µM
• CC(C)(C)OC(=O)N(CCNS(=O)(=O)c1cccc2cnccc12)CCC(=O)ON1C(=O)CCC1=O = > 100 µM
• CCOC(=O)C1=C(Nc2cccc3ccccc23)OC/C1=N\NC(=O)c1ccccc1O = 67.8 µM
• Oc1ccc(/C=C/c2ccc3cccc(O)c3n2)cc1O = > 100 µM
• CC(C)CC(NC(=O)C(CCI)Cc1ccccc1)C(=O)Nc1ccccc1 (stereo unspecified) = > 100 µM
• CCOc1ccccc1/C=N\N=C(\N)N/N=C/c1ccccc1OCC = > 100 µM
• O=C(CN1CCN(c2ccccc2)CC1)N1CCN(c2nnc(-c3ccc(Cl)cc3)c(-c3ccc(Cl)cc3)n2)CC1 = > 100 µM
• Cn1cc(-c2ccc(-c3cn(C)c4ccc(Cl)cc34)s2)c2cc(Cl)ccc21 = > 100 µM
• CC(c1ccccc1)/[N+]([O-])=C/c1ccccc1 (stereo unspecified) = > 100 µM
• O=C1Nc2ccccc2/C1=C/c1c(Cl)[nH]c2ccc(O)cc12 = 12.8 µM
• C/C(=N\NC(=S)NC(C)(C)C)c1ccccn1 = > 36.6 µM
• CC(=O)N1N(c2ccc([N+](=O)[O-])cc2)C(=O)C1(C)C = 59 µM
• COc1cc(/C=C/C(=O)c2sc(NNC(C)=O)nc2C)ccc1O = > 100 µM
• CC(=O)O[C@H]1CC[C@@]2(C)[C@@H](CC[C@@H]3[C@@H]2CC[C@]2(C)C=C(C=O)C[C@@H]32)C1 = 9.59 µM
• CC(C)(C#N)c1cc(C(=O)Nc2cc(Nc3ncccc3-c3ncnc4nc[nH]c34)ccc2F)cc(C(F)(F)F)c1 = > 10 µM
• COc1cccc2c1C(=O)c1ccc3cc(CCl)cc(O)c3c1C2=O = 0.612 µM
• CCOC(=O)C1(C/C=C\CBr)CCCCCCCCCCC1=O (stereo unspecified) = 31.4 µM
• CCCC(Sc1ccccc1)P(=O)(c1ccccc1)c1ccccc1 (stereo unspecified) = > 100 µM
• COc1ccc(C(=O)N(C(=S)OCCOc2ccccc2)c2ccccc2)cc1 = > 100 µM
• CCNCCNc1cc(C2CCCCC2)c(C#N)c2nc3ccccc3n12 = 7.99 µM
• O=C1c2ccccc2CC1C1(O)C(=O)Nc2ccccc21 (stereo unspecified) = > 100 µM
• O=C1/C(=C/c2ccccc2)CCC/C1=C\c1ccc(O)c(CN2CCCCC2)c1 = 9.54 µM
• O=c1oc(-c2ccccc2)c(-c2ccccc2)n1-c1ccc(Br)cc1 = > 100 µM
